Tested on: TK-10 renal
test.details: NCI tumour cell line growth inhibition, 48 h
Field: TGI. Provide a value for each of the molecules that follow.
Entry rule: numbers only, all in µM.

Input CCN(CC)c1c(N(CC)CC)c(=O)c1=O . Output TGI: 8.7

Input Cc1ccc(Cl)cc1Nc1nc(C(F)(F)F)ccc1C(=O)N1CCN(c2ccc(F)cc2)CC1 . Output TGI: 26.4

Input CC(C)(C)C(=O)OCOP(=O)(OCOC(=O)C(C)(C)C)C1CCCN(O)C1=O (stereo not given) . Output TGI: 8.05

Input COc1cc(C2c3cc4c(cc3OC(N3CCCC3)C2C)OCO4)cc(OC)c1O (stereo not given) . Output TGI: 58.6

Input O=c1c2ccccc2[se]n1-c1cccnc1 . Output TGI: 50.1

Input CC(=O)Oc1cccc2c(/C=N/NC(N)=S)ncc(C)c12 . Output TGI: 22

Input Cc1ccc(S(=O)(=O)N/N=C/C(=C/c2ccc(Cl)cc2)CC(/C=N/NS(=O)(=O)c2ccc(C)cc2)=C\c2ccc(Cl)cc2)cc1 . Output TGI: 45.6

---

Test system: OVCAR-4 ovarian
test.details: NCI tumour cell line growth inhibition, 48 h; in the data active = GI50 below about 0.43 µM; inactive = the rest
Your response should consist of one outcome taken from t for active, f for inactive

INPUT: So what was the verdict on COC(=O)/C=C/c1cc(O)c2oc(-c3ccc(O)c(O)c3)c(C(=O)OC)c2c1 in this test?
OUTPUT: f

INPUT: So what was the verdict on Cc1nc(N)sc1-c1ccnc(Nc2ccc(N3CCOCC3)cc2)n1 in this test?
OUTPUT: f

INPUT: So what was the verdict on O=[N+]([O-])c1ccc(C=C2C(Cl)=C(Cl)C(Cl)=C2Cl)cc1 in this test?
OUTPUT: f

INPUT: So what was the verdict on COc1ccc2c(c1)C(C)Cc1c(Cl)ncnc1N2C (stereo not drawn) in this test?
OUTPUT: t

INPUT: So what was the verdict on Cc1c2cccnc2c(C)c2c1c1cc(CO)ccc1n2C in this test?
OUTPUT: f

INPUT: So what was the verdict on CNCCCn1cc(C2=C(c3cn(C)c4ccccc34)C(=O)NC2=O)c2ccccc21 in this test?
OUTPUT: f

INPUT: So what was the verdict on C=C(C=O)C1CCC2(C(=O)O)CCC3(C)C(CCC4C5(C)CCC(O)C(C)(C)C5CCC43C)C12 (stereo not drawn) in this test?
OUTPUT: f

INPUT: So what was the verdict on C=C(F)C(=O)N1CCN(c2nc(OC[C@@H]3CCCN3C)nc3c2CCN(c2cccc4cccc(Cl)c24)C3)C[C@@H]1CC#N in this test?
OUTPUT: f

INPUT: So what was the verdict on C[C@H]1c2cccc(O)c2C(O)=C2C(=O)[C@]3(O)C(O)=C(C(N)=O)C(=O)[C@@H](N(C)C)[C@@H]3[C@@H](O)[C@@H]21 in this test?
OUTPUT: f

INPUT: So what was the verdict on COc1ccc2c(c1)CCC1C2CC[C@@]2(C)C1CC1=CC(COC(C)=O)C3C(=O)c4ccccc4C(=O)C3C12 (stereo partly drawn) in this test?
OUTPUT: f

INPUT: So what was the verdict on Clc1coc2nc3ccccc3c(Nc3ccc4c(c3)OCO4)c12 in this test?
OUTPUT: f

INPUT: So what was the verdict on O=C(Nc1ccc(OS(=O)(=O)c2ccccc2)cc1)C12CC3CC(CC(C3)C1)C2 in this test?
OUTPUT: f

INPUT: So what was the verdict on O=C(c1ccccc1)c1cc(Cl)ccc1OCCCCN1CCN(CCCCOc2ccc(Cl)cc2C(=O)c2ccccc2)CC1 in this test?
OUTPUT: f

---

Field: TGI. Provide a value for each of the compounds that follow.
Test system: ACHN renal
test.details: NCI tumour cell line growth inhibition, 48 h
Entry rule: numbers only, all in µM.

Input CC(=O)OCc1cc(CCC(=O)NCCNc2c3ccccc3nc3ccccc23)cc(COC(C)=O)c1O[Si](C)(C)C(C)(C)C . Output TGI: 30.6

Input C[As](C)SC1OC(CO)C(O)C1O (stereo not given) . Output TGI: 1.03

---

Tested on: HCC-2998 colon
test.details: NCI tumour cell line growth inhibition, 48 h
Field: TGI. Provide a value for each of the compounds that follow.
Entry rule: numbers only, all in µM.

Input O=C1N=c2ccccc2=C1c1c(O)[nH]c2ccccc12 . Output TGI: 63.5

Input C#Cc1cccc(Nc2ncnc3cc(OC)c(OCCCCCCC(=O)NO)cc23)c1 . Output TGI: 1.34

Input S=C(NCc1ccccc1)c1nc[nH]c1C(=S)NCc1ccccc1 . Output TGI: 23.6

Input CC1OC2CC(=O)OC2C2=C1C(=O)c1c(O)cccc1C2=O (stereo not drawn) . Output TGI: 0.558

Input CC1=CC(/C=C(\C)CCCc2ccoc2)C2(OC(=O)C(C)=C2O)[C@H]2C1CC[C@@H]2C (stereo partly drawn) . Output TGI: 74.2

Input O=C(OCc1ccc2cccc(O)c2n1)N1CCN(C(=O)c2cc3cc(F)ccc3[nH]2)CC1 . Output TGI: 3.26

Input COc1ccc(N(C)c2ncnc3occ(C)c23)cc1 . Output TGI: 0.0463

Input C/C(=C\CCc1ccoc1)CC/C=C(\C)CCCC1=CC(=O)OC1 . Output TGI: 29.1

Input Cc1ccc(NC(=O)c2c(C)nc(=O)n3c2N(/N=C/c2ccc(Cl)cc2)CC3)cc1 . Output TGI: 32.3

Input CCc1nc(N)nc(N)c1-c1ccc2nn(-c3ccccc3)[n+]([O-])c2c1 . Output TGI: 20.5

Input CNCCNc1c2c(c(NCCNC)c3c(CN(C)C)c[nH]c13)C(=O)c1ccccc1C2=O . Output TGI: 5.37

Input COc1cc(Nc2cn[nH]c2-c2ccc(Cl)cc2)cc(OC)c1OC . Output TGI: 23.4

Input N#CSC#Cc1ccc(C#CSC#N)cc1 . Output TGI: 34.3

Input CC(=O)NC1C(OCc2ccccc2)OC(CO)C(O)C1OC(C)C(=O)NC(C)C(=O)NC(CCC(=O)NCCCNc1c2ccccc2nc2cccc([N+](=O)[O-])c12)C(N)=O (stereo not drawn) . Output TGI: 2.52

Input O=c1c2ccccc2[se]n1-c1cccnc1 . Output TGI: 33.8

Input COc1ccc(C2CC(c3cccc(Nc4ccncc4)c3)=NN2c2cc(Cl)cc(Cl)c2)cc1 (stereo not drawn) . Output TGI: 2.85

Input CC(SC(C)C(=O)N/N=C/c1cccc(Cl)c1)C(=O)N/N=C\c1cccc(Cl)c1 (stereo not drawn) . Output TGI: 75.8

Input C[C@H]1c2cccc(O)c2C(O)=C2C(=O)[C@]3(O)C(O)=C(C(N)=O)C(=O)[C@@H](N(C)C)[C@@H]3[C@@H](O)[C@@H]21 . Output TGI: 12.7

Input C=C1CC(c2ccc(OCCCN3C(=O)c4ccccc4C3=O)c(OC)c2)OC1=O (stereo not drawn) . Output TGI: 27.7

---

Test system: IGROV1 ovarian
test.details: NCI tumour cell line growth inhibition, 48 h
Field: GI50. Provide a value for each of the compounds that follow.

Input O=S(=O)(Nc1cc(F)cc(Cl)c1)c1ccc(-c2cnc(C3CC3)o2)cc1 . Output GI50: 771 nM

Input OCCN1CN(CCO)CN(c2nc(N3CN(CCO)CN(CCO)C3)nc(N3CN(CCO)CN(CCO)C3)n2)C1 . Output GI50: 1.55 ng/mL

Input C=C(F)C(=O)N1CCN(c2nc(OC[C@@H]3CCCN3C)nc3c2CCN(c2cccc4cccc(Cl)c24)C3)C[C@@H]1CC#N . Output GI50: 1310 nM

Input COc1ccc2c(c1)CCC1C2CC[C@@]2(C)C1CC1=CC(COC(C)=O)C3C(=O)c4ccccc4C(=O)C3C12 (some centres undefined) . Output GI50: > 100000 nM

---

Field: GI50. Provide a value for each of the compounds that follow.
System: A549 NSCLC
test.details: NCI tumour cell line growth inhibition, 48 h

Entry Cn1c(=O)c2c(nc(Nc3cc(=O)[nH]c(=O)[nH]3)n2Cc2ccccc2)n(C)c1=O : GI50 on A549 NSCLC = > 100 µM

Entry O=C1NC(=Nc2ccccc2)S/C1=C\c1ccc2ncccc2c1 : GI50 on A549 NSCLC = > 7.12 µM

Entry CC(=O)O.CC(=O)O.CC(=O)O.CC(=O)O.CC(=O)O.CC(=O)O.O.[Ti].[Ti] : GI50 on A549 NSCLC = > 100 µM

Entry CC(C)=C[C@@H]1C[C@H](C)[C@H]2CC[C@H](C)C3=C2[C@](O)(OC3=O)[C@]1(C)O : GI50 on A549 NSCLC = > 100 µM

Entry COc1cc(Nc2cn[nH]c2-c2ccc(Cl)cc2)cc(OC)c1OC : GI50 on A549 NSCLC = 5.96 µM

Entry CCN1CCN(c2ccc(Nc3cc(N(C)C(=O)Nc4c(Cl)c(OC)cc(OC)c4Cl)ncn3)cc2)CC1 : GI50 on A549 NSCLC = 3.13 µM

Entry COc1ccc(C(=O)c2cc(OC)c(C)c(OC)c2)cc1OC(=O)CCl : GI50 on A549 NSCLC = 1.11 µM
